- Test system: PPARg DBDmut:RXRa IVT, anti-PPARg (DBD mutation: PPARg1 K132A/R137A, NR concentration 270 nM, RXRa partner concentration 90 nM)
- method: PBM binding z-score (relative to random genomic background probes); higher = stronger binding; sequences stand for … in GC…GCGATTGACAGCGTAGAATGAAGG
readout kind: PBM binding z-score
Answer with a bare number; do not write a unit.

[in] Data request, read-out PBM binding z-score, for CATACAGGGTCAGCTGGGCCAGAGTAGGGACGGC
[out] 0.246

[in] Data request, read-out PBM binding z-score, for CGAACTAGTTCATTGACAGGACAGTGAATAGTAA
[out] 0.647

[in] Data request, read-out PBM binding z-score, for TCTTCTAGATCAAAGGTTAAGAAAGCCGAAGCCT
[out] 0.463

[in] Data request, read-out PBM binding z-score, for ATCTCTAGGTAAAGATAGGTCAGTGAATGCAAAT
[out] 1.34

[in] Data request, read-out PBM binding z-score, for CAAACTCGGTCACGAAAGGTCAAAGTCGAATGAC
[out] 1.31

[in] Data request, read-out PBM binding z-score, for GCGACTGGGGCATAGCAGGTTACCATAAGGTTGG
[out] -0.728

[in] Data request, read-out PBM binding z-score, for AGAACGAGAGCAATGAGTTGATAGCACGGGTGGC
[out] -0.979

[in] Data request, read-out PBM binding z-score, for CCGACTGGGGCAAAGGCTACCATACTCAGTACGA
[out] -0.0188

[in] Data request, read-out PBM binding z-score, for TAGCCTAGGTCATGGGGCCAGTATAGTACGCATC
[out] 0.968

[in] Data request, read-out PBM binding z-score, for AGAACGAGGGCAATGAGCTGATAGCACGGGTGGC
[out] 0.548

[in] Data request, read-out PBM binding z-score, for GCTATTAGTTGAAAGGGCGACCGAATGATTCTCG
[out] -0.223

[in] Data request, read-out PBM binding z-score, for ATCTCTAGCTAAAAGTTCAGTGAATCCCGAGGAT
[out] 0.697

[in] Data request, read-out PBM binding z-score, for GCTTGTAGATCAAGGTCAAGAAAGACTAAGCTAA
[out] 0.431

[in] Data request, read-out PBM binding z-score, for CTCGAAAGGTCGGTTGAGGTGAGTATGCGGATAA
[out] -0.43

[in] Data request, read-out PBM binding z-score, for CTTGAAAGGTCGGTTGAGGTGAGTATACGGATAA
[out] -0.0609

[in] Data request, read-out PBM binding z-score, for ATCTCTAGGTACCAAGTTCAGTGAAAGAGAGGAC
[out] 1.07

[in] Data request, read-out PBM binding z-score, for GCGGCTAGGTCAGGTTGGTCAGCTAACGGGTACG
[out] -1.08

[in] Data request, read-out PBM binding z-score, for CCTAGTTGCTCAGGAGGTCACACACCGGATATGA
[out] 0.559

[in] Data request, read-out PBM binding z-score, for AGAGCGAGGGCAATGAGTTGATAGCACGGGTGGC
[out] 0.00949

[in] Data request, read-out PBM binding z-score, for ATCTCTAGGTAAAGATAGTTCCGTGAATGCAAAT
[out] 1.55

[in] Data request, read-out PBM binding z-score, for GTACCAAGGTGAATAGATCGTTGATGAGTAGGCG
[out] 0.415

[in] Data request, read-out PBM binding z-score, for ATAATGAGGTTATTAAGATCAGGGAATTGCGGTC
[out] 1.46

[in] Data request, read-out PBM binding z-score, for ATATGTAGGTTATCGGGTCATTCAGTTTGCGCAT
[out] 3.73

[in] Data request, read-out PBM binding z-score, for TGAATGTGGTTAAAGATCAGGGAACGTGGCGTCG
[out] 0.142

[in] Data request, read-out PBM binding z-score, for TTACCAAGGTGAAAGGTCGTGGATGCACGCCTTG
[out] 0.851

[in] Data request, read-out PBM binding z-score, for CTTCAAAGTTCAAGGTAACGTAACAGAAAGCAGC
[out] 0.994
